Molecular target: VIM-1 (Pseudomonas aeruginosa)
Test: Enzyme activity: determination of IC50, fluorescence assay with CCF2-FA substrate
Type: biochemical
Conditions: VIM-1 enzyme 30 pM, CCF2-FA 1.25 μM, 2 hours at 25° C.; read-out: VIM1 IC50
attribute_measured: log10(IC50) (log10 of the value in nM)
Scale: decimal log of IC50, IC50 in nM.

CC(C)(C)[C@H](C(=O)O)[C@H](Cc1cccc2sc(N)nc12)c1nnn[nH]1: 1.03
CCC[C@H](C(=O)O)[C@H](Cc1cnc(N2CCOCC2)nc1)c1nnn[nH]1: 0.70

// returns log10(IC50) for CC(C)C[C@H](C(=O)O)[C@H](Cc1ccc(CCN)c(F)c1)c1nn[nH]n1.O=C(O)C(F)(F)F [Example 445, 2,2,2-trifluoroacetate] with VIM-1 (Pseudomonas aeruginosa); value = 0.30

Value sought: log10(IC50), system VIM-1 (Pseudomonas aeruginosa), item CC(C)(C)[C@H](C(=O)O)[C@H](Cc1ccc(C2CCNC2)cc1)c1nnn[nH]1.O=C(O)C(F)(F)F (stereo partly drawn) [Example 431, 2,2,2-trifluoroacetate] . Result: 1.22

For the molecule `CC(C)C[C@H](C(=O)O)[C@H](Cc1ccc(N2CCC(CO)CC2)nc1)c1nnn[nH]1` , the measured log10(IC50) on VIM-1 (Pseudomonas aeruginosa) was 1.20

For `CCC[C@H](C(=O)O)[C@H](Cc1cccc(-c2ccnc(N)c2)c1)c1nn[nH]n1` on VIM-1 (Pseudomonas aeruginosa), measured log10(IC50) was 0.11

Entry `CCC[C@H](C(=O)O)[C@H](Cc1cnc(OC2CCNCC2)nc1)c1nnn[nH]1` , VIM-1 (Pseudomonas aeruginosa) data, log10(IC50) value: 0.83
